- target_under_test: Glucocorticoid receptor (Homo sapiens) (UniProt P04150)
- Sequence (P04150 whole entry): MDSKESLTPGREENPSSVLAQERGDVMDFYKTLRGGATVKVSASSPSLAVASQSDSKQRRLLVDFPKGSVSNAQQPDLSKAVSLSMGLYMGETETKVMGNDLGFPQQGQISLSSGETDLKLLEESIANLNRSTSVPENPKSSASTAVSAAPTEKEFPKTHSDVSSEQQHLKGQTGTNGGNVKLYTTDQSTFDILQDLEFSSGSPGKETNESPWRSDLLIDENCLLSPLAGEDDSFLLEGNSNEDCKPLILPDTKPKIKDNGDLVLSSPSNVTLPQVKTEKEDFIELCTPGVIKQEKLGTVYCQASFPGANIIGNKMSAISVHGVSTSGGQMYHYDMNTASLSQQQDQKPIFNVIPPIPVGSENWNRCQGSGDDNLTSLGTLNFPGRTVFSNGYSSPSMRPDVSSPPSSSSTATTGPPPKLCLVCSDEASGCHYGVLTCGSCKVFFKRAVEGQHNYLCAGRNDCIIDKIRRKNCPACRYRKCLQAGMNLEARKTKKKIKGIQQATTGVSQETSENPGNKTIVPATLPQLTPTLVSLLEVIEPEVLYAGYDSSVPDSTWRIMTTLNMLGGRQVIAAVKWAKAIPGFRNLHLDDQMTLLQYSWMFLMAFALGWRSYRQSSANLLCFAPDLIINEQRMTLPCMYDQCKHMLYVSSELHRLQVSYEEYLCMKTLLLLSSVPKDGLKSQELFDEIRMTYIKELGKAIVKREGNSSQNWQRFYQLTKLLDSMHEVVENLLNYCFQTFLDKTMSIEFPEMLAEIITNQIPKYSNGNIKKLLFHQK
- assay_notes: SafetyScreen: GR Human Glucocorticoid NHR Binding Agonist Radioligand LeadHunter Assay, catalogue number: 469
- assay_setup: Test compound concentration 10.0 uM
measured_metric: inhibition (%)
Field: numeric (%). Do not append units.

Use these answered entries as a reference point.
Q: Output measured inhibition for this item: C[C@H](C(=O)O)[C@@H](NC(=O)c1ncnc2[nH]ccc12)c1ccc(Br)cc1
Result: 3

Q: Name the recorded inhibition of the item CC(C)[C@H](Nc1ncnc2[nH]ccc12)c1ccc2c(c1)S(=O)(=O)CCC2 in your answer.
Result: 10

Continuing:
Q: Quickly give me recorded inhibition for Cc1nn(C)cc1-c1cc2c(N[C@H](c3ccc4c(c3)S(=O)(=O)CCC4)C(C)C)ncnc2[nH]1
Result: 7

* * *

- target_under_test: Cholecystokinin receptor type A (Homo sapiens) (UniProt P32238)
- Sequence (P32238 whole entry): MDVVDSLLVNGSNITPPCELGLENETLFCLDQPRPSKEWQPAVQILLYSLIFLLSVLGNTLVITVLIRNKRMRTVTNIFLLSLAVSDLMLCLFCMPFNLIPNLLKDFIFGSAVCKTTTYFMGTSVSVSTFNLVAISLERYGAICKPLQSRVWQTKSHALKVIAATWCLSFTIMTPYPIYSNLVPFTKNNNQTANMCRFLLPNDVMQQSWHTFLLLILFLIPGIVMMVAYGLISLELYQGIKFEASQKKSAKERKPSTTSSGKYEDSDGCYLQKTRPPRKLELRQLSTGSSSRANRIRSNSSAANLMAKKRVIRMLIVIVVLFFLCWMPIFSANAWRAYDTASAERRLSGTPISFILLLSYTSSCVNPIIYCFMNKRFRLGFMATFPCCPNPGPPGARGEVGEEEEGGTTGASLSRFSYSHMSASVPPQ
- assay_notes: SafetyScreen: CCK1 (CCKA) Human Cholecystokinin GPCR Binding Agonist Radioligand LeadHunter Assay, catalogue number: 39
- assay_setup: Test compound concentration 10.0 uM
Below is a list of entries, each paired with its recorded inhibition value.
Give just the number in %; leave the unit off.

The cases that follow already have their inhibition on record.
Q: Report measured inhibition on Cholecystokinin receptor type A (Homo sapiens) (UniProt P32238); entry: COc1ccc([C@H](Cc2nnn[nH]2)NC(=O)c2ncnc3[nH]ccc23)cc1
Result: -5

Q: Report the value of inhibition obtained on Cholecystokinin receptor type A (Homo sapiens) (UniProt P32238) for Cc1nn(C)cc1-c1cc2c(N[C@H](c3ccc4c(c3)S(=O)(=O)CCC4)C(C)C)ncnc2[nH]1 .
Result: -8

Others:
Q: // fetch inhibition; item: C[C@H](C(=O)O)[C@@H](NC(=O)c1ncnc2[nH]ccc12)c1ccc(Br)cc1 ; system: Cholecystokinin receptor type A (Homo sapiens) (UniProt P32238)
Result: 6

Q: Provide measured inhibition on Cholecystokinin receptor type A (Homo sapiens) (UniProt P32238) for Cn1ncc(-c2cc3c(N[C@@H](c4ccc5c(n4)OCCO5)C(C)(C)C)ncnc3[nH]2)c1C#N please.
Result: 4

Q: State inhibition on Cholecystokinin receptor type A (Homo sapiens) (UniProt P32238). Entry: CC(C)[C@@H](Nc1ncnc2[nH]c(-c3cnn(C)c3C#N)cc12)c1ccc2c(n1)OCCO2
Result: 20

* * *

- target_under_test: Mu-type opioid receptor (Homo sapiens)
- assay_notes: SafetyScreen: mu (MOP) Human Opioid GPCR Binding Agonist Radioligand LeadHunter Assay, catalogue number: 118
- assay_setup: Test compound concentration 10.0 uM
Consider the following compounds and their measured inhibition readings.
Answer in %, number only, no unit symbol.

Q: Using the record for CC(C)[C@H](Nc1ncnc2[nH]c(-c3cnn(C)c3C#N)cc12)c1ccc2c(n1)OCCO2 , state its measured inhibition.
Result: 15

Q: Give the reported inhibition for this compound. CNC(=O)Cn1cc(-c2cc3c(N[C@@H](c4ccc5c(c4)S(=O)(=O)CCC5)C(C)C)ncnc3[nH]2)cn1
Result: 3

Q: Return reported inhibition. Input compound: Cn1ncc(-c2cc3c(N[C@@H](c4ccc5c(n4)OCCO5)C(C)(C)C)ncnc3[nH]2)c1C#N
Result: 28

Q: Identify measured inhibition corresponding to COc1ccc([C@H](Cc2nnn[nH]2)NC(=O)c2ncnc3[nH]ccc23)cc1
Result: -3

Q: Read off the recorded inhibition for CNCc1cc(-c2cc3c(N[C@@H](c4ccc5c(c4)S(=O)(=O)CCC5)C(C)C)ncnc3[nH]2)co1
Result: -5

Q: Give recorded inhibition. C[C@H](C(=O)O)[C@@H](NC(=O)c1ncnc2[nH]ccc12)c1ccc(Br)cc1
Result: -10

More entries:
Q: For the compound CC(C)[C@@H](Nc1ncnc2[nH]c(C(=O)N[C@@H]3CCN(C)C3)cc12)c1ccc2c(c1)S(=O)(=O)CCC2 , give its measured inhibition value.
Result: 7

Q: Give reported inhibition value for Cc1nn(C)cc1-c1cc2c(N[C@H](c3ccc4c(c3)S(=O)(=O)CCC4)C(C)C)ncnc2[nH]1
Result: 28

Q: Return value of inhibition for input CC(C)[C@H](Nc1ncnc2[nH]ccc12)c1ccc2c(c1)S(=O)(=O)CCC2 , no commentary.
Result: 8

Q: Determine from records and report inhibition for CC(C)[C@@H](Nc1ncnc2[nH]c(-c3cnn(C)c3C#N)cc12)c1ccc2c(n1)OCCO2
Result: 77

* * *

- target_under_test: Adenosine receptor A2a (Homo sapiens) (UniProt P29274)
- Sequence (P29274 whole entry): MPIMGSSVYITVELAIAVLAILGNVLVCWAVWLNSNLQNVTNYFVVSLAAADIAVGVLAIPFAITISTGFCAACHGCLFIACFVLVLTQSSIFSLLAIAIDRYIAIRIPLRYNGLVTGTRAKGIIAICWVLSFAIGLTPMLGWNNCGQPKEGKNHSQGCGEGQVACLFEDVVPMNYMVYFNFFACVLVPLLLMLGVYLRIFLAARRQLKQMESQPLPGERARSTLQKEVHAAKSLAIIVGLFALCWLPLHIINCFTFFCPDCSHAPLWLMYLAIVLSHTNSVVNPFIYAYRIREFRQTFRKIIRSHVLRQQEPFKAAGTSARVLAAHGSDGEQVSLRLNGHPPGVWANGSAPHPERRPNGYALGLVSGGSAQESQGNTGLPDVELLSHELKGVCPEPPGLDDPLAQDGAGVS
- assay_notes: SafetyScreen: A2A Human Adenosine GPCR Binding Agonist Radioligand LeadHunter Assay, catalogue number: 4
- assay_setup: Test compound concentration 10.0 uM
Listed below: inhibition values for each entry.
Answer with the number, then the unit.

Q: Give inhibition for this entry on Adenosine receptor A2a (Homo sapiens) (UniProt P29274): Cc1nn(C)cc1-c1cc2c(N[C@H](c3ccc4c(c3)S(=O)(=O)CCC4)C(C)C)ncnc2[nH]1
Result: 13%

Q: Please report the measured inhibition for CNC(=O)Cn1cc(-c2cc3c(N[C@@H](c4ccc5c(c4)S(=O)(=O)CCC5)C(C)C)ncnc3[nH]2)cn1 tested on Adenosine receptor A2a (Homo sapiens) (UniProt P29274).
Result: 23%

Q: Check Adenosine receptor A2a (Homo sapiens) (UniProt P29274) data and give inhibition for Cn1ncc(-c2cc3c(N[C@@H](c4ccc5c(n4)OCCO5)C(C)(C)C)ncnc3[nH]2)c1C#N .
Result: 52%

For the next question, use this compound.
Q: GET inhibition where system = Adenosine receptor A2a (Homo sapiens) (UniProt P29274) and item = CC(C)[C@@H](Nc1ncnc2[nH]c(-c3cnn(C)c3C#N)cc12)c1ccc2c(n1)OCCO2
Result: 69%

* * *

- target_under_test: Muscarinic acetylcholine receptor M2 (Homo sapiens)
- assay_notes: SafetyScreen: M2 Human Acetylcholine (Muscarinic) GPCR Binding Antagonist Radioligand LeadHunter Assay, catalogue number: 93
- assay_setup: Test compound concentration 10.0 uM
Each entry gets F if its inhibition stays under 30%, and T if its inhibition is 30% or above.

Q: Record Cc1nn(C)cc1-c1cc2c(N[C@H](c3ccc4c(c3)S(=O)(=O)CCC4)C(C)C)ncnc2[nH]1 ; criterion: inhibition no lower than 30%. Met?
Result: F

Please turn your attention to the following entry.
Q: Form field: inhibition at least 30%? Entry: Cn1ncc(-c2cc3c(N[C@@H](c4ccc5c(n4)OCCO5)C(C)(C)C)ncnc3[nH]2)c1C#N
Result: F

* * *

- target_under_test: Muscarinic acetylcholine receptor M3 (Homo sapiens) (UniProt P20309)
- Sequence (P20309 whole entry, looked up): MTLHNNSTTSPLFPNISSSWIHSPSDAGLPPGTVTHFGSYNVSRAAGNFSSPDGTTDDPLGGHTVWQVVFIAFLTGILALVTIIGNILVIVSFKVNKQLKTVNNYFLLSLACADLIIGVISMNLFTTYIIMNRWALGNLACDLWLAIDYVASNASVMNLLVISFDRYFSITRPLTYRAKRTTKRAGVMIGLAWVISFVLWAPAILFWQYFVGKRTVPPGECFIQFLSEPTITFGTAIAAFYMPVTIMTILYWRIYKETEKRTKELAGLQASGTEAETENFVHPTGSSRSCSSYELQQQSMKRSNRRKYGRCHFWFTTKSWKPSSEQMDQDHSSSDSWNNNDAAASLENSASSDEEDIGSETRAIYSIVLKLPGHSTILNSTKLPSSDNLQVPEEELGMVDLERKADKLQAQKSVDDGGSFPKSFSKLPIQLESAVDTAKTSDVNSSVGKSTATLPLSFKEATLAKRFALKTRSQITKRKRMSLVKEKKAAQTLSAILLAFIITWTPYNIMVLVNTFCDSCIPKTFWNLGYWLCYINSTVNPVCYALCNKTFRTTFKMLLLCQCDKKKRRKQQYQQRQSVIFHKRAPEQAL
- assay_notes: SafetyScreen: M3 Human Acetylcholine (Muscarinic) GPCR Binding Antagonist Radioligand LeadHunter Assay, catalogue number: 95
- assay_setup: Test compound concentration 10.0 uM
measured_metric: inhibition (%)
Give the value in % but do not write % after it.

Some compounds with known inhibition results, for comparison:
Q: Look up and state reported inhibition for C[C@H](C(=O)O)[C@@H](NC(=O)c1ncnc2[nH]ccc12)c1ccc(Br)cc1
Result: -9

Q: Give the value of inhibition reported for the following: Cc1nn(C)cc1-c1cc2c(N[C@H](c3ccc4c(c3)S(=O)(=O)CCC4)C(C)C)ncnc2[nH]1
Result: -9

Q: Give a short answer stating reported inhibition for Cn1ncc(-c2cc3c(N[C@@H](c4ccc5c(n4)OCCO5)C(C)(C)C)ncnc3[nH]2)c1C#N .
Result: -8

Q: Fill in inhibition for record CC(C)[C@H](Nc1ncnc2[nH]ccc12)c1ccc2c(c1)S(=O)(=O)CCC2
Result: 5

New cases:
Q: Provide inhibition value for the following compound: CC(C)[C@@H](Nc1ncnc2[nH]c(-c3cnn(C)c3C#N)cc12)c1ccc2c(n1)OCCO2
Result: 1

* * *

- target_under_test: 3',5'-cyclic-AMP phosphodiesterase 4D (Homo sapiens)
- assay_notes: SafetyScreen: PDE4D2 Human Phosphodiesterase Enzymatic LeadHunter Assay, catalogue number: 4077
- Format: functional
- assay_setup: Test compound concentration 10.0 uM
measured_metric: inhibition (%)
Quick note: give the figure in %, leave out the unit.

Q: # return recorded inhibition for input CC(C)[C@@H](Nc1ncnc2[nH]c(C(=O)N[C@@H]3CCN(C)C3)cc12)c1ccc2c(c1)S(=O)(=O)CCC2
Result: 37

Q: Give me measured inhibition, please, for this compound: CC(C)[C@H](Nc1ncnc2[nH]ccc12)c1ccc2c(c1)S(=O)(=O)CCC2
Result: 36

Q: Provide inhibition value for the following compound: C[C@H](C(=O)O)[C@@H](NC(=O)c1ncnc2[nH]ccc12)c1ccc(Br)cc1
Result: 30

Q: Complete the entry with inhibition for Cc1nn(C)cc1-c1cc2c(N[C@H](c3ccc4c(c3)S(=O)(=O)CCC4)C(C)C)ncnc2[nH]1
Result: 43

More entries:
Q: Using known records, supply inhibition for CNCc1cc(-c2cc3c(N[C@@H](c4ccc5c(c4)S(=O)(=O)CCC5)C(C)C)ncnc3[nH]2)co1
Result: 43

Q: Answer with the recorded inhibition of CC(C)[C@@H](Nc1ncnc2[nH]c(-c3cnn(C)c3C#N)cc12)c1ccc2c(n1)OCCO2 only.
Result: 44

Q: Provide measured inhibition value, entry: CC(C)[C@H](Nc1ncnc2[nH]c(-c3cnn(C)c3C#N)cc12)c1ccc2c(n1)OCCO2
Result: 70

Q: Answer with the recorded inhibition of Cn1ncc(-c2cc3c(N[C@@H](c4ccc5c(n4)OCCO5)C(C)(C)C)ncnc3[nH]2)c1C#N only.
Result: 20

Q: Let me know recorded inhibition for CNC(=O)Cn1cc(-c2cc3c(N[C@@H](c4ccc5c(c4)S(=O)(=O)CCC5)C(C)C)ncnc3[nH]2)cn1 , thanks.
Result: 41

Q: Output inhibition of COc1ccc([C@H](Cc2nnn[nH]2)NC(=O)c2ncnc3[nH]ccc23)cc1
Result: 41
